From: patent US9340493B2

Target: Pseudomonas aeruginosa LpxC enzyme (Pseudomonas aeruginosa, UniProt P47205)
Construct: made in house; host or cells: E. coli
Sequence (P47205 1-303): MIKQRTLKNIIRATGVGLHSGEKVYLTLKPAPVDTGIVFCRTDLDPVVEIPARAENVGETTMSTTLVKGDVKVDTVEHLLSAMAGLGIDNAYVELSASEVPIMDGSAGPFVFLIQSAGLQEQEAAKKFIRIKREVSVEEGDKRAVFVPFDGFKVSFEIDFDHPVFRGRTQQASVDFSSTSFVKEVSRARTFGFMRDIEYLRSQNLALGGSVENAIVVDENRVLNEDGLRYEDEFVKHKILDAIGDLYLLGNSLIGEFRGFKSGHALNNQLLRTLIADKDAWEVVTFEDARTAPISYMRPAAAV
Experiment: IC50 assay, LpxC enzyme from P. aeruginosa
Format: biochemical
Settings: 0.5 nM enzyme, 25° C., pH 8.0, 20 min; ** = average of 2-8 assays
Listing of entries alongside the reported log10 IC50.
Please keep in mind that the values are log10 of IC50 expressed in µM.

A selection of reference data follows.
>  <Molecule>
O=C(NO)C(CO)(CO)OCc1ccc(-c2ccccc2)cc1

>  <Measurement>
-1.97

$$$$
>  <Molecule>
CCc1ccc(-c2ccc(CO[C@](C)(C(=O)NO)[C@@H](O)c3cc(CO)on3)cc2)cc1

>  <Measurement>
-3.61

$$$$
>  <Molecule>
C[C@@](OCc1ccc(-c2ccccc2)cc1)(C(=O)NO)[C@@H](O)c1cc(COP(=O)(O)O)on1 [Example 47, phosphate]

>  <Measurement>
-2.25

$$$$
>  <Molecule>
CCCc1ccc(-c2ccc(CO[C@](C)(C(=O)NO)[C@@H](O)c3cc(C)on3)cc2)cc1

>  <Measurement>
-3.12

$$$$
>  <Molecule>
C[C@@](OCc1ccc(-c2ccccc2)cc1)(C(=O)NO)[C@@H](O)c1cc(S(C)(=O)=O)on1

>  <Measurement>
-3.16

$$$$

Recorded log10 IC50 of `CCCc1ccc(-c2ccc(CO[C@](C)(C(=O)NO)[C@@H](O)c3cn4ccccc4n3)cc2)cc1` , please. -2.86

Recorded log10 IC50 of CC(CO)(OCc1ccc(-c2ccc(-c3cc(CN4CCOCC4)no3)cc2)cc1)C(=O)NO (centres unmarked) , please. -2.40

Recorded log10 IC50 of Cc1ncsc1CCNC(=O)C(C)(OCc1ccc(-c2ccccc2)cc1)C(=O)NO (centres unmarked) , please. -2.05

Recorded log10 IC50 of CC(OCc1ccc(-c2ccccc2)cc1)(C(=O)NO)C(=O)NC[C@@H]1CCCO1 (some centres unmarked) , please. -1.90

Recorded log10 IC50 of `Cc1cc([C@H](O)[C@](C)(OCc2ccc(-c3ccccc3)cc2)C(=O)NO)no1` , please. -3.42

Recorded log10 IC50 of `C[C@@](OCc1ccc(-c2ccccc2)cc1)(C(=O)NO)[C@@H](O)c1cccnc1` , please. -2.74

Recorded log10 IC50 of O=C(NO)C(CO)(OCc1ccc(-c2ccccc2)cc1)C(F)(F)F (centres unmarked) , please. -1.83

Recorded log10 IC50 of `CC[C@H](O)[C@](C)(OCc1ccc(-c2ccccc2)cc1)C(=O)NO` , please. -2.07

----------
Molecular target: Pseudomonas aeruginosa LpxC enzyme (Pseudomonas aeruginosa, UniProt P47205)
Construct: made in house; host or cells: E. coli
Sequence (P47205 1-303): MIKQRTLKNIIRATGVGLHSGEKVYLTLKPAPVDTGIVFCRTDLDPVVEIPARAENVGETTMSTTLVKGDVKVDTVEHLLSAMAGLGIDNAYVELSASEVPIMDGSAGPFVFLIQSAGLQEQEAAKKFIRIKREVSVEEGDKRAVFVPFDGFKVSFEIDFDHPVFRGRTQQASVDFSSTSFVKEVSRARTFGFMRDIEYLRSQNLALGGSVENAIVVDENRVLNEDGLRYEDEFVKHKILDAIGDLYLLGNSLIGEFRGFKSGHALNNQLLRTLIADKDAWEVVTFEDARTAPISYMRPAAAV
Assay: IC50 assay, LpxC enzyme from P. aeruginosa
Type: biochemical
Conditions: 0.5 nM enzyme, 25° C., pH 8.0, 20 min; ** = average of 2-8 assays
Listing of entries alongside the reported IC50.
Answer in µM, number only, no unit symbol.

>  <Compound>
CC(CO)(OCc1ccc(-c2ccc(-c3csnn3)cc2)cc1)C(=O)NO (centres unmarked)

>  <Measured On>
Pseudomonas aeruginosa LpxC enzyme (Pseudomonas aeruginosa, UniProt P47205)

>  <IC50, µM>
0.00402

$$$$
>  <Compound>
CC(OCc1ccc(-c2ccccc2)cc1)(C(=O)NO)C1(O)CCC1 (centres unmarked)

>  <Measured On>
Pseudomonas aeruginosa LpxC enzyme (Pseudomonas aeruginosa, UniProt P47205)

>  <IC50, µM>
0.00623

$$$$
>  <Compound>
CC(OCc1ccc(-c2ccccc2)cc1)(C(=O)NO)C(=O)NCCc1cscn1 (centres unmarked)

>  <Measured On>
Pseudomonas aeruginosa LpxC enzyme (Pseudomonas aeruginosa, UniProt P47205)

>  <IC50, µM>
0.00848

$$$$
>  <Compound>
Cc1nc([C@H](O)[C@](C)(OCc2ccc(-c3ccccc3)cc2)C(=O)NO)c(C)o1

>  <Measured On>
Pseudomonas aeruginosa LpxC enzyme (Pseudomonas aeruginosa, UniProt P47205)

>  <IC50, µM>
0.0652

$$$$
>  <Compound>
C[C@@](OCc1ccc(-c2ccccc2)cc1)(C(=O)NO)[C@@H](O)c1ccccc1

>  <Measured On>
Pseudomonas aeruginosa LpxC enzyme (Pseudomonas aeruginosa, UniProt P47205)

>  <IC50, µM>
0.00509

$$$$

Recorded IC50 of `C[C@@](OCc1ccc(-c2ccccc2)cc1)(C(=O)NO)[C@@H](O)c1ccc(CO)o1` , please. 0.000582

Recorded IC50 of `C[C@@](OCc1ccc(-c2ccc(C(F)(F)F)cn2)cc1)(C(=O)NO)[C@@H](O)c1cc(CO)on1` , please. 0.00116

Recorded IC50 of CC(OCc1ccc(-c2ccccc2)cc1)C(=O)NO (centres unmarked) , please. 0.406

----------
Target: Pseudomonas aeruginosa LpxC enzyme (Pseudomonas aeruginosa, UniProt P47205)
Construct: made in house; host or cells: E. coli
Experiment: IC50 assay, LpxC enzyme from P. aeruginosa
Type: biochemical
Settings: 0.5 nM enzyme, 25° C., pH 8.0, 20 min; ** = average of 2-8 assays
Listing of entries alongside the reported log10(IC50).
Please keep in mind that the values are log10 of IC50 expressed in µM.

A selection of reference data follows.
>  <Compound>
C[C@@](OCc1ccc(-c2ccc(F)cc2)cc1)(C(=O)NO)[C@@H](O)c1cc(CO)on1

>  <log10(IC50)>
-3.16

$$$$
>  <Compound>
Cc1ccc(-c2ccc(CO[C@](C)(C(=O)NO)[C@@H](O)c3cc(C)on3)cc2)cc1

>  <log10(IC50)>
-3.23

$$$$
>  <Compound>
Cc1cc(CNC(=O)C(C)(OCc2ccc(-c3ccc(F)cc3)nc2)C(=O)NO)no1 (centres unmarked)

>  <log10(IC50)>
-1.84

$$$$
>  <Compound>
CC(CO)(OCc1ccc(-c2ccc(Cl)cc2)cc1)C(=O)NO (centres unmarked)

>  <log10(IC50)>
-2.38

$$$$
>  <Compound>
O=C(NO)C(CO)(CCO)OCc1ccc(-c2ccccc2)cc1 (centres unmarked)

>  <log10(IC50)>
-1.87

$$$$

Recorded log10(IC50) of Cc1cc(-c2ccc(COC(C)(C(=O)NO)C(=O)NCc3cc(C)on3)cc2)ccn1 (centres unmarked) , please. -2.17

Recorded log10(IC50) of CC(OCc1ccc(-c2ccccc2)cc1)(C(=O)NO)C(=O)NCc1nc(-c2ccccc2)no1 (centres unmarked) , please. -2.35

Recorded log10(IC50) of `C[C@@](OCc1ccc(-c2ccc(-c3cnco3)cc2)cc1)(C(=O)NO)[C@@H](O)c1ccc(CO)o1` , please. -3.44

----------
Biological target: Pseudomonas aeruginosa LpxC enzyme (Pseudomonas aeruginosa, UniProt P47205)
Construct: made in house; host or cells: E. coli
Experiment: IC50 assay, LpxC enzyme from P. aeruginosa
Type: biochemical
Conditions: 0.5 nM enzyme, 25° C., pH 8.0, 20 min; ** = average of 2-8 assays
In plain terms, low IC50, meaning strictly below 0.007 µM, gives yes, and everything else gives no.

These recorded examples may help you get a feel for the data.
>  <Compound>
COCc1ccc([C@H](O)[C@](C)(OCc2ccc(-c3ccccc3)cc2)C(=O)NO)o1

>  <Assigned Class>
yes

$$$$
>  <Compound>
COc1cccc(-c2ccc(COC(C)(CO)C(=O)NO)cc2)c1F (centres unmarked)

>  <Assigned Class>
yes

$$$$
>  <Compound>
COCC(CO)(OCc1ccc(-c2ccccc2)cc1)C(=O)NO (centres unmarked)

>  <Assigned Class>
no

$$$$

Please examine the following record next.
Given Cc1nnc(CCNC(=O)C(C)(OCc2ccc(-c3ccccc3)cc2)C(=O)NO)[nH]1 (centres unmarked) , is recorded IC50 strictly lower than 0.007 µM? yes
